# Lookup of reported IC50, cell viability, T47D cells keyed by entry
- target.or.system: T1, human prolactin receptor (PRLR) (human, UniProt P16471 25-622)
- T1 sequence: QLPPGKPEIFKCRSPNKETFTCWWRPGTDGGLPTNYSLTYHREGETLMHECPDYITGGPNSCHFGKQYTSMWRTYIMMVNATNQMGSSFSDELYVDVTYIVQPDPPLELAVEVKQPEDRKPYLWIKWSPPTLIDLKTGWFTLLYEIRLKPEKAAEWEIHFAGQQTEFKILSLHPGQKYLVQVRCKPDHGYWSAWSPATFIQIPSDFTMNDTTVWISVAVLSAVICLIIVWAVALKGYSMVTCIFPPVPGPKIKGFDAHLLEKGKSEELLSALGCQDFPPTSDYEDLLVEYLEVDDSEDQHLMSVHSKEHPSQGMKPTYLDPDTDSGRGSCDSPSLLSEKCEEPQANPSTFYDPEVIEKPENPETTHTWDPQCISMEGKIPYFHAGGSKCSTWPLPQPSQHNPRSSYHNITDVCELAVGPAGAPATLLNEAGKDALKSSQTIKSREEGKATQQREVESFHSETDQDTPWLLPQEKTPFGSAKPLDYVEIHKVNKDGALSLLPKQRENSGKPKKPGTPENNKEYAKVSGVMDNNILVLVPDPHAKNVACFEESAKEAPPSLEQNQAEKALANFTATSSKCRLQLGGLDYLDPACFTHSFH
- run.description: cell-based or functional assay
Just the number please, in nM, no unit attached.

1) H1H6765P-DM1 (antibody, human IgG1, V domains shown, DM1 conjugated through SMCC linker; attachment residues not stated) VH: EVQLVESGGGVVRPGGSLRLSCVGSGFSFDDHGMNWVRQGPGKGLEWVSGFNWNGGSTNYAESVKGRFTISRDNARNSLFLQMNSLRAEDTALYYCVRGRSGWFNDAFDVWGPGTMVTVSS VL: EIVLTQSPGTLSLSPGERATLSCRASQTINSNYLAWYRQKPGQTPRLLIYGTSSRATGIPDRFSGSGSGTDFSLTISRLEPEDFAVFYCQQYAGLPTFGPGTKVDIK | 1.63
2) H1H6958N2-DM1 (antibody, human IgG1, V domains shown, DM1 conjugated through SMCC linker; attachment residues not stated) VH: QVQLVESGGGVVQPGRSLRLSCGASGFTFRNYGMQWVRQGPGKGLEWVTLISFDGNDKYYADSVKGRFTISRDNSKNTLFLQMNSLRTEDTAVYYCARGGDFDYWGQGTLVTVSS VL: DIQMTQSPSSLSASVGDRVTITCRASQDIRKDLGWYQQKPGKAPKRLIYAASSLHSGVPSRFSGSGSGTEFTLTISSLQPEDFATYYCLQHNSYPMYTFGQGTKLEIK | 1.34

Turning now to a further record.
Problem: Determine its reported IC50, cell viability, T47D cells: H1H6800P-DM1 (antibody, human IgG1, V domains shown, DM1 conjugated through SMCC linker; attachment residues not stated) VH: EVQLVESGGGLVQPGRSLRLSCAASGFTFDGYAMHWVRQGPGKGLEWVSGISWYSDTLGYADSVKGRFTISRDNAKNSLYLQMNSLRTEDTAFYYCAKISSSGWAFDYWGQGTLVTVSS VL: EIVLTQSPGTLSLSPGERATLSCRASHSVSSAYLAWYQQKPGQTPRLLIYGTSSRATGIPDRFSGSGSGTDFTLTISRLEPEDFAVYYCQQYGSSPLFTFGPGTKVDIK
Solution: 3.2
